Give measured melting point for each item. Keep answers brief.

Look up melting point for the entries below, preserving their order.
1. CCCN(CCC)c1c(CC)nn2c(-c3ccc(OC)cc3Cl)cccc12 [Example 13]
2. COc1ccc(-c2cccc3c(C(C)C)c(C)nn23)c(Cl)c1 [Example 40]
3. CCCN(CCC)c1c(CC)nn2c(-c3ccc(N(C)C)cc3C(F)(F)F)cccc12 [Example 14]
4. CCCN(CCC)c1c(CC)nn2c(-c3ccc(Cl)cc3Cl)cccc12.O=C(O)/C=C\C(=O)O [Example 11]
5. CCCN(CCC)c1c(CC)nn2c(-c3cnc(N(C)C)cc3C)cccc12 [Example 18]
6. CCc1nn2c(-c3ccc(OC)cc3Cl)cccc2c1N(CCF)CCOC [Example 25]

result:
73.6 to 76 °C
111.9 to 114.9 °C
69.1 to 79.8 °C
106 to 112 °C
98.5 to 100.3 °C
45.8 to 52.8 °C

Look up melting point for the entries below, preserving their order.
1. CCCN(CCC)c1c(CC)nn2c(-c3ccc(OC)cc3C)cccc12 [Example 12]
2. CCCN(CCC)c1c(CC)nn2c(-c3ccc(N(C)C)cc3Cl)cccc12 [Example 16]

result:
1: 76 to 79 °C; 2: 132.8 to 134.3 °C

Data provenance is patent US7151109B2.
